This section lists pIC50 readings for Pro-cathepsin H (Homo sapiens, UniProt P09668).
pIC50: −log10 of the molar value.

>  <smiles_string>
CCCC[C@H](NC(=O)O[C@@H]1C(=O)OCC1(C)C)C(=O)C(=O)N[C@H](C)c1ccccc1

>  <test_target>
Pro-cathepsin H (Homo sapiens, UniProt P09668)
Sequence (P09668 116-335 limits assumed, other chains not shown): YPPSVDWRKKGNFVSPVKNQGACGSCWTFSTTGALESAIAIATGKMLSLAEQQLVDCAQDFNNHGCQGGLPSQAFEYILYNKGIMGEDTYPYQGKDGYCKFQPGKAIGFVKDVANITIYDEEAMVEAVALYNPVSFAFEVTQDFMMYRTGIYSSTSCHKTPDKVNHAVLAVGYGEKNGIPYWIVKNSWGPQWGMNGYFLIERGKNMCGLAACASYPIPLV

>  <property_name>
pIC50

>  <reported>
< 6.30

$$$$

Fill in the blank: the reported pIC50 of CCCC[C@H](NC(=O)O[C@H]1CCc2ccccc21)C(=O)C(=O)N[C@H](C)c1ccccc1 is ____. < 4.89

// query: CCCC[C@H](NC(=O)O[C@@H]1C(=O)NCC1(C)C)C(=O)C(=O)N[C@H](C)c1ccccc1 < 4.89

###

# test_target: Procathepsin L (Homo sapiens, UniProt P07711)
# Sequence (P07711 whole entry): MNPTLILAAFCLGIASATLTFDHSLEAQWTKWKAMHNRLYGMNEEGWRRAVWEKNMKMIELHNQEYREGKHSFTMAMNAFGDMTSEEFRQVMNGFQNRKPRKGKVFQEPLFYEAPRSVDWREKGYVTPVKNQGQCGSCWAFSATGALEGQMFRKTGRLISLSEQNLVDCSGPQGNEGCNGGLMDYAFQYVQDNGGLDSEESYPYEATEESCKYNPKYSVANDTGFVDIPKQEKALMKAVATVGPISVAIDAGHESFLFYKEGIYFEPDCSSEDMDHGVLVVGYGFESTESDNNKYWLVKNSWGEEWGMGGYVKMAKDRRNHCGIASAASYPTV
property_name: pIC50
# pIC50: negative log10 of molar concentration; output just the value

// solved cases for pIC50 follow
>  <molecule>
CCCC[C@H](NC(=O)OC1CC2CCC1C2)C(=O)C(=O)N[C@H](C)c1ccccc1 (stereo not given in full)

>  <property_name>
pIC50

>  <reported>
6.00

$$$$
>  <molecule>
CCCC[C@H](NC(=O)O[C@H]1CCc2ccccc21)C(=O)C(=O)N[C@H](C)c1ccccc1

>  <property_name>
pIC50

>  <reported>
6.34

$$$$
>  <molecule>
CCCC[C@H](NC(=O)O[C@H]1CCCc2ccccc21)C(=O)C(=O)N[C@H](C)c1ccccc1

>  <property_name>
pIC50

>  <reported>
6.18

$$$$
>  <molecule>
CCCC[C@H](NC(=O)O[C@@H]1C[C@H](C)C[C@H](C)C1)C(=O)C(=O)N[C@H](C)c1ccccc1

>  <property_name>
pIC50

>  <reported>
5.36

$$$$

Find the recorded pIC50 belonging to CCCC[C@H](NC(=O)OC1C2CC3CC(C2)CC1C3)C(=O)C(=O)N[C@H](C)c1ccccc1 (stereo not given in full) and report it. 5.59

###

# method_summary: Total clearance after intravenous administration of […] mg/kg in rats was determined
# Type: ADME, organism-based
# condition_info: rat, in vivo, 2.5 mg/kg, read-out: C1
Known clearance of a selection of compounds
Form entry: value (mL/min/kg) — number only.

>  <smiles_string>
CCCC[C@H](NC(=O)O[C@@H]1C(=O)NCC1(C)C)C(=O)C(=O)N[C@H](C)c1ccccc1

>  <property_name>
clearance

>  <reported>
48

$$$$

# input for lookup
Field request: clearance | item: CCCC[C@H](NC(=O)O[C@@H]1C(=O)OCC1(C)C)C(=O)C(=O)N[C@H](C)c1ccccc1 460
